Assay: Activity of CMY-2 by spectrophotometry
readoutType: kcat (s⁻¹)
Kindly provide the numeric value in s⁻¹ only, without the unit symbol.

// query Using the record for CC1(C)S[C@@H]2[C@H](NC(=O)Cc3ccccc3)C(=O)N2[C@H]1C(=O)O , report its kcat.
// result 10

// query Using the record for O=C(Cc1cccs1)N[C@@H]1C(=O)N2C(C(=O)[O-])=C(C[n+]3ccccc3)CS[C@H]12 , report its kcat.
// result 300

// query Using the record for O=C(Cc1cccs1)N[C@@H]1C(=O)N2C(C(=O)O)=C(/C=C/c3ccc([N+](=O)[O-])cc3[N+](=O)[O-])CS[C@H]12 , report its kcat.
// result 980

Ref: ChEMBL document CHEMBL1629653
